All values here come from patent US20210214435A1.

TEST TARGET: T1, human GPVI-2A extracellular domain fused at its C-terminus to human IgG1 Fc (GPVI-Fc) (human)
T1 construct: Isoform 2, haplotype 'a'; also called hGPVI-2a
T1 sequence (chain, as listed by the source limits assumed): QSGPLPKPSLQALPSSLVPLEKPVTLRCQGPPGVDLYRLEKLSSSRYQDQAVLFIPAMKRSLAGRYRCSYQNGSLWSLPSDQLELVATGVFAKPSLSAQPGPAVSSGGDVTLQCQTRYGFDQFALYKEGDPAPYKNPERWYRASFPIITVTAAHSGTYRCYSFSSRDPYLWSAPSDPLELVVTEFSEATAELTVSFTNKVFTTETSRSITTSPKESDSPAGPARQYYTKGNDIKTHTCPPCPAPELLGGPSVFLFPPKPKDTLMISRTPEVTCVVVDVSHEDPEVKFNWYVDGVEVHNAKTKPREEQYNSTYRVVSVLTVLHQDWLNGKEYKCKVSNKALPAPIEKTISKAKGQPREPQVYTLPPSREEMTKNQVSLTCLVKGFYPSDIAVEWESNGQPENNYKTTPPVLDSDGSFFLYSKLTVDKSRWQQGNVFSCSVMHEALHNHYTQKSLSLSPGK
ASSAY NOTES: ELISA, coated GPVI-Fc, Fab titrated
QUANTITY: pEC50
One number for each entry, as −log10 of the molar value.

Fab #2 comprising a modified heavy chain constant region (Fab, V domains shown, Human Fab from the Ylanthia library; produced in HKB11 cells; also called Fab #2 mod; HC) VH: QVQLVESGGGLVKPGGSLRLSCAASGFSFSDHYMSWIRQAPGKGLEWVSSVGSEGKFIDYAASVKGRFTISRDNAKNSLYLQMNSLRAEDTAVYYCARHYREFRWHYYYFDYWGQGTLVTVSS VL: QSVLTQPPSVSGAPGQRVTISCTGSSSNIGAGYDVHWYQQLPGTAPKLLIYGNSNRPSGVPDRFSGSKSGTSASLAITGLQAEDEADYYCQSHDLGAHVWVFGGGTKLTVLG | 9.19
Fab #4 comprising a modified heavy chain constant region (Fab, V domains shown, Human Fab from the Ylanthia library; produced in HKB11 cells; also called Fab #4 mod; HC) VH: QVQLVQSGAEVKKPGASVKVSCKASGGAFTSSYMHWVRQAPGQGLEWMGIIEPTGASTLYAQRFQGRVTMTRDTSTSTVYMELSSLRSEDTAVYYCARTGIALPLGFDLWGQGTLVTVSS VL: QSVLTQPPSVSAAPGQKVTISCSGSSSNIGNNYVSWYQQLPGTAPKLLIYDNNKRPSGIPDRFSGSKSGTSATLGITGLQTEDEADYYCAAWSTRFRWVFGGGTKLTVLG | 9.13

Please find the next binder below.
Q) What value of pEC50 has been reported for the following binder? Reference Control Antibody RefFab #1 (humanized GPVI antibody of WO2011073954A2, SANOFI) (Fab, V domains shown, Cloned into mammalian Fab expression vectors; a glycine-serine linker (G4S)2 was added to the C-terminus of the Fab heavy chain) VH: EVQLLESGPGLVAPSGSLSITCTVSGFSLTGYGVNWVRQPPGKGLEWLGMIWGDGSTDYQSTLKSRLSISKDNSKSQVFLKMNSLRTDDTARYYCARDLPMDYWGLGTSVTVSS VL: DIQMTQSPSSLSASVGGRVTITCKASQDINKYIAWYQHKPGKGPSLLIHYTSTLQPGVPSRFSGSGSGRDYSFSISNLQPEDIATYYCLQYANLLTFGGGTKLEIKR
A) 8.84
